Test system: Hepatitis C virus
Assay text: Antiviral activity against HCV genotype 1b Con1 harboring HCV genotype 1a H77 wild type NS3 infected in human HuH7 cells assessed as inhibition of viral replication after 96 hrs by luciferase reporter gene assay
Assay type: functional, organism-based, Hepacivirus hominis
Test context: isolate Con1, Huh-7, 96 h
Attribute measured: pEC50
Notebook: values listed as pEC50 are -log10 of the concentration (mol/L).

>  <Smiles record>
C=C[C@@H]1C[C@]1(NC(=O)[C@@H]1C[C@@H](Oc2nc3cc(OC)ccc3nc2Cl)CN1C(=O)[C@@H](NC(=O)OC1CCCC1)C(C)(C)C)C(=O)NS(=O)(=O)C1(C)CC1

>  <pEC50>
8.51

$$$$
>  <Smiles record>
C=C[C@@H]1C[C@]1(NC(=O)[C@@H]1C[C@@H](Oc2nc3cc(OC)ccc3nc2C)CN1C(=O)[C@@H](NC(=O)OC1CCCC1)C(C)(C)C)C(=O)NS(=O)(=O)C1(C)CC1

>  <pEC50>
8.35

$$$$
>  <Smiles record>
C=C[C@@H]1C[C@]1(NC(=O)[C@@H]1C[C@@H]2CN1C(=O)[C@H](C(C)(C)C)NC(=O)O[C@@H]1C[C@H]1CCCCCc1nc3ccc(OC)cc3nc1O2)C(=O)NS(=O)(=O)C1(C)CC1

>  <pEC50>
9.92

$$$$
>  <Smiles record>
C=C[C@@H]1C[C@]1(NC(=O)[C@@H]1C[C@@H](Oc2nc3cc(OC)ccc3nc2Cl)CN1C(=O)[C@@H](NC(=O)OC(C)(C)C)C(C)(C)C)C(=O)NS(=O)(=O)C1CC1

>  <pEC50>
8.18

$$$$
>  <Smiles record>
C=C[C@@H]1C[C@]1(NC(=O)[C@@H]1C[C@@H](Oc2nc3cc(OC)ccc3nc2CC)CN1C(=O)[C@@H](NC(=O)OC(C)(C)C)C(C)(C)C)C(=O)NS(=O)(=O)C1CC1

>  <pEC50>
7.62

$$$$
>  <Smiles record>
C=C[C@@H]1C[C@]1(NC(=O)[C@@H]1C[C@@H](Oc2nc3cc(OC)ccc3nc2Cl)CN1C(=O)[C@@H](NC(=O)OC(C)(C)C)C(C)(C)C)C(=O)NS(=O)(=O)C1(C)CC1

>  <pEC50>
8.20

$$$$
>  <Smiles record>
C=C[C@@H]1C[C@]1(NC(=O)[C@@H]1C[C@@H](Oc2nc3cc(OC)ccc3nc2Cl)CN1C(=O)[C@@H](NC(=O)OC1CCCC1)C(C)(C)C)C(=O)NS(=O)(=O)C1CC1

>  <pEC50>
8.13

$$$$

Now take the following compound into account.
Challenge: Look at this compound and give its reported pEC50. "C=C[C@@H]1C[C@]1(NC(=O)[C@@H]1C[C@@H](Oc2nc3cc(OC)ccc3nc2C)CN1C(=O)[C@@H](NC(=O)OC1CCCC1)C(C)(C)C)C(=O)NS(=O)(=O)C1CC1"
Response given: 8.00
